Data provenance: patent US6710048B2

Target: VEGF-R (vascular endothelial growth factor receptor-2) (Rattus norvegicus, UniProt O08775)
Construct: polyhistidine (6xHis) (N)
Sequence (O08775 786-1343): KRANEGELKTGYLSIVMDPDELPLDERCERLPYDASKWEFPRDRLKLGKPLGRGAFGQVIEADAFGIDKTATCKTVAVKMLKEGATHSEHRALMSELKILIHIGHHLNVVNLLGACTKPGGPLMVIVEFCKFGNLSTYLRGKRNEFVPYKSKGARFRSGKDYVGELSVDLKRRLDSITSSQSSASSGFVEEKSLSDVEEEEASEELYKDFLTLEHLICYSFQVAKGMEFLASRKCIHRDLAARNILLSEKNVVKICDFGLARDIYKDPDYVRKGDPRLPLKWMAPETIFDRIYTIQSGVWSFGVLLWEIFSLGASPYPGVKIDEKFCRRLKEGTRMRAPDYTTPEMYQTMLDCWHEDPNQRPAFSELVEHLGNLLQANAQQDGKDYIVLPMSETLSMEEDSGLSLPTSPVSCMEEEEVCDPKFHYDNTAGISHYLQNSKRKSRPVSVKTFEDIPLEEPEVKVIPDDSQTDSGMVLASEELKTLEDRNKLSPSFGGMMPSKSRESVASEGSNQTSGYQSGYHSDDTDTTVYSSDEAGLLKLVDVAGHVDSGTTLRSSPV
Assay: VEGF-R screening assay (33P FlashPlate kinase assay)
Format: biochemical
Conditions: Tables 1-3; >10 or >100 = no 50% inhibition at highest dose tested; read-out: VEGF-R IC50
Procedure: A kinase reaction mixture was prepared containing 50 mM Tris-HCl pH=8, 10 mM MgCl2, 0.1 mM NAPO4, 1 mM DTT, 10 μM ATP, 0.025 μM biotinylated peptide substrate and 0.8 μCuries per well ^33P-γ-ATP [2000-3000 Ci/mmol]. […] The PLCI biotinylated peptide substrate becomes immobilized on the Flashplate™ and the incorporation of ^33P-γ-ATP was measured by reading the plate on a scintillation counter. […]
pIC50: −log10 of the molar value.
reported-metric: pIC50

The cases that follow already have their pIC50 on record.
> print(dat)
                                   compound                                    target  result.number
1  COc1cccc(Nc2cncc(-c3cncc(NCCCO)c3)n2)c1 [Cmd 57]  VEGF-R (vascular endothelial growth factor receptor-2) (Rattus norvegicus, UniProt O08775)           6.09
2  CCN(CC)C(=O)CNc1cncc(-c2cncc(Nc3cccc(Cl)c3)n2)c1 [Cmd 81]  VEGF-R (vascular endothelial growth factor receptor-2) (Rattus norvegicus, UniProt O08775)           5.96
3  OCCCNc1cncc(-c2cncc(Nc3cccc(Cl)c3)n2)c1 [Cmd 4]  VEGF-R (vascular endothelial growth factor receptor-2) (Rattus norvegicus, UniProt O08775)           7.10
4  COCCOCCNc1cncc(-c2cncc(Nc3cccc(Cl)c3)n2)c1 [Cmd 85]  VEGF-R (vascular endothelial growth factor receptor-2) (Rattus norvegicus, UniProt O08775)           7.07
5  OCCNc1cncc(-c2cncc(Nc3cccc(Cl)c3)n2)c1 [Cmd 31]  VEGF-R (vascular endothelial growth factor receptor-2) (Rattus norvegicus, UniProt O08775)           6.82

a = OCCCCNc1cncc(-c2cncc(Nc3cccc(Cl)c3)n2)c1 [Cmd 32]
b = OCCCNc1cncc(-c2cncc(NCc3ccccc3)n2)c1 [Cmd 62]
c = Clc1cccc(Nc2cncc(-c3cncc(NCCCn4ccnc4)c3)n2)c1 [Cmd 77]
d = COc1ccc(Nc2cncc(-c3cncc(NCCCc4ccncc4)c3)n2)cc1 [Cmd 88]
e = Clc1cccc(Nc2cncc(-c3cncc(NCCCN4CCNCC4)c3)n2)c1 [Cmd 69]
# ascending order, key=pIC50 Answer format: the labels, in the requested order.
b, e, d, a, c
(b: 5.98, e: 6.44, d: 6.81, a: 7.22, c: 7.52)

1 = Clc1cccc(Nc2cncc(-c3cncc(NCCCc4ccncc4)c3)n2)c1 [Cmd 71]
2 = CCOCC(=O)Nc1cncc(-c2cncc(Nc3cccc(Cl)c3)n2)c1 [Cmd 102]
3 = COCCC(=O)Nc1cncc(-c2cncc(Nc3cccc(Cl)c3)n2)c1 [Cmd 103]
Arrange these compounds by their pIC50, starting with the largest number. Give the order by naming the labels one after another as requested.
1, 3, 2
(1: 7.28, 3: 6.23, 2: 6.03)

----------
Molecular target: Casein Kinase 1 (Rattus norvegicus)
Construct: a truncation at amino acid 318 of the C-terminal portion of the rat CK1 delta isoform produced in E.coli
Sequence (Q06486 1-317 limits assumed): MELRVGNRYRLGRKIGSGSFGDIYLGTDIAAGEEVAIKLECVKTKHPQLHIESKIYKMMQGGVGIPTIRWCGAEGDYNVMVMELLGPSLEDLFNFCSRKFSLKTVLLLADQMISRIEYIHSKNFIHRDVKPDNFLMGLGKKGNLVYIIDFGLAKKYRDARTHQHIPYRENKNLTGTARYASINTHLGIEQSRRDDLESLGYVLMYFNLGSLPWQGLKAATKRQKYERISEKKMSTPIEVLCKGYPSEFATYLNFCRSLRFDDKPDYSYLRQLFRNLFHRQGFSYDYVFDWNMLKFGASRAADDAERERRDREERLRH
Assay: Casein Kinase 1 selectivity assay
Conditions: Table 4 kinase selectivity; read-out: IC50, Assay 8 Casein Kinase 1
pIC50: −log10 of the molar value.
Each entry below carries its recorded pIC50.

Please review the entries below; each comes with its answer.
> print(dat)
                  compound.structure.string  reported.metric  result
1  CN(C)CCNc1cncc(-c2cncc(Nc3cccc(Cl)c3)n2)c1            pIC50  < 4.00
2  Clc1cccc(Nc2cncc(-c3cncc(NCCCn4cccn4)c3)n2)c1            pIC50    5.25
3  Clc1cccc(Nc2cncc(-c3cncc(NCCCN4CCCCC4)c3)n2)c1            pIC50    5.30
4  CN(C)CCCNc1cncc(-c2cncc(Nc3cccc(Cl)c3)n2)c1            pIC50  < 4.00

GET /values?readout=pIC50&item= Clc1cccc(Nc2cncc(-c3cncc(NCCCc4cccnc4)c3)n2)c1
< 4.00

Would you kindly share the measured pIC50 for O=C(NCCCO)c1cncc(-c2cncc(Nc3cccc(Cl)c3)n2)c1 ?
< 4.00

Which pIC50 value belongs to Clc1cccc(Nc2cncc(-c3cncc(NCCCn4cncn4)c3)n2)c1 ?
5.19

Request the reported pIC50 associated with OCCCNc1cncc(-c2cncc(Nc3cccc(Cl)c3)n2)c1
< 4.00

Please report the recorded pIC50 for Clc1cccc(Nc2cncc(-c3cncc(NCCCc4ccncc4)c3)n2)c1 .
< 4.00
